Molecular target: the molecule itself
Assay: cross-linking; membrane fraction of cells expressing a single-Cys mutant of HA-Sho1*; homo-trifunctional crosslinker TMEA; SDS–PAGE, anti-HA blot
readout kind: stoichiometry N
Could you respond with only the numeric value?

Query: State its stoichiometry N: HA-Sho1* T112C (natural protein, Saccharomyces cerevisiae, UniProt P40073 1-367, looked up, Sho1, S. cerevisiae, Cys-less (C78S C85S) with a single Cys in TM3; source: S. cerevisiae KT079 (sho1Δ), GAL1 promoter, in membrane fraction; not shown: HA, N-terminal, kept) MSISSKIRPTPRKPSRMATDHSFKMKKFYADPFAISSISLAIVSWVIAIGGSISSASTNESFPRFTWWGIVYQFLIISSLMLFYSFDLVDHYRIFITTSIAVAFVYNTNSACNLVYADGPKKAAASAGVILLSIINLIWILYYGGDNASPTNRWIDSFSIKGIRPSPLENSLHRARRRGNRNTTPYQNNVYNDAIRDSGYATQFDGYPQQQPSHTNYVSSTALAGFENTQPNTSEAVNLHLNTLQQRINSASNAKETNDNSNNQTNTNIGNTFDTDFSNGNTETTMGDTLGLYSDIGDDNFIYKAKALYPYDADDDDAYEISFEQNEILQVSDIEGRWWKARRANGETGIIPSNYVQLIDGPEEMHR
Response: 3
